Each recorded value in this set is attributed to paper PMC4890880.

Property: pIC50; scope: individual compounds
System: Plasmodium berghei (Pb-Luc) exoerythrocytic-stage parasites
Test: microbe, parasite or virus in culture
Conditions: read-out: PbLuc IC50, dose response, 1/3 dilutions, max conc. 10 or 50 uM, unit inferred
A value of pIC50 is the negative decimal logarithm of a concentration given in moles per litre.

Worked examples follow.
compound	pIC50
COc1cc2c(cc1OC)C1=NNC(=O)C1=NC(C)(C)C2	5.40
COc1ccccc1CNC(=O)CCn1c(=O)[nH]c2ccccc2c1=O	7.35
Nc1ccc(-c2nc3cc(Oc4ccc(Oc5ccc6[nH]c(-c7ccc(N)cc7)nc6c5)cc4)ccc3[nH]2)cc1	5.16
CCCOCc1cc(CN2CCN(c3cccc(Cl)c3)CC2)c(O)c2ncccc12	6.03
COc1ccccc1N1C(=N)SC(=Cc2ccc(OCc3ccccc3F)cc2)C1=O	5.74
N=c1c2ccccc2nnn1-c1cccc(C(F)(F)F)c1	6.10
CCCCNc1nc(NC(C)(C)C)nc(NC(C)(C)C)n1	4.81
Nc1ccc(-c2nc3cc(Cc4ccc5[nH]c(-c6ccc(N)cc6)nc5c4)ccc3[nH]2)cc1	5.00
COc1ccc(C2NCCc3c2[nH]c2ccccc32)cc1CN1CCN(c2ccc(F)cc2)CC1 (stereo not drawn)	5.20
Brc1ccc(Nc2nc3ccccc3nc2Nc2ccc(Br)cc2)cc1	6.77

Q: Given the compound CCN(CC)CCNc1ccnc2cc3ccccc3cc12 , what is its reported pIC50?
A: 4.68

Q: // next record COc1ccc(C(=O)C(CCC(CNC(C)(C)C)C(=O)c2ccc(OC)cc2)CNC(C)(C)C)cc1 (stereo not drawn)
A: 5.14

Q: Let us now turn to COc1ccc2c(c1)C1(Nc3ccccc3-c3nc4ccccc4n31)C(=O)N2 (stereo not drawn)
A: 4.80

Q: Consider next the compound CC(C)(C)c1ccc(C(=O)Nc2c3c(nn2-c2cccc(Cl)c2)CSC3)cc1 in the same way.
A: 5.00

Q: Input Cc1c(C)n(Cc2ccc(F)cc2)c2ccc(C(=O)NCc3ccco3)cc12
A: 6.12

Q: Ok, now CCOC(=O)c1cn(CC)c2cc(N3CCCCC3)c(F)cc2c1=O
A: 7.13

====

System: HepG2-A16-CD81EGFP cells
Assay: cells
Conditions: Homo sapiens, HepG2, read-out: HepG2 Tox% @ 50 uM rep1
Property: cytotoxicity at 50 µM; scope: individual compounds
Write the answer as a number in %, unit excluded.

Q: Which value of cytotoxicity at 50 µM has been reported for Cc1cc(Nc2cccc(F)c2)nc(NCc2ccccc2)n1 [MMV006319] in the records?
A: 99

Q: Now consider Cc1sc(NC(=O)c2ccco2)c(C(c2cccnc2)N2CCC(Cc3ccccc3)CC2)c1C (centres unmarked) [MMV396663] .
A: 82

Q: Entry to check: COc1cc(C(=O)ON=C(N)Cc2cccc3ccccc23)cc(OC)c1OC [MMV666687]
A: 100

Q: And for Cc1ccc(-c2cc(C(=O)Nc3ccc(S(=O)(=O)N4CCCCC4)cc3)[nH]n2)c(O)c1 [MMV665906] ?
A: -10

Q: Subsequent entry: c1ccc(C2=Nc3ccccc3N=C(c3ccccc3)c3ccccc32)cc1 [MMV007113]
A: 22

====

System: Plasmodium berghei (Pb-Luc) exoerythrocytic-stage parasites
Experiment: microbe, parasite or virus in culture
Conditions: read-out: Inhibition% @ 50 uM rep2
measuredMetric: inhibition at 50 µM
Dear colleague, please send the value followed by its unit.

Look over these answered cases.
molecule	inhibition at 50 µM
CCOC(=O)c1cnc2ccc(OC)cc2c1NCc1ccccc1	104%
Cc1ccc(Cn2c(N3CCC(C(=O)NCc4cccs4)CC3)nc3ccccc32)cc1	105%
O=C(Nc1ccccc1O)c1ccc(Oc2cccc(C(=O)Nc3ccccc3O)c2)cc1	104%

Q: Entry O=C(Nc1ccsc1C(=O)NC1CCCCC1)c1ccc(F)cc1 has what inhibition at 50 µM?
A: 43%

Q: Proceed to COc1ccc(CCN2C(=O)c3[nH]nc(-c4cc(Cl)c(C)cc4O)c3C2c2ccccc2F)cc1 (centres unmarked)
A: 101%

Q: CCOc1ccccc1NC(=O)CN1CCN(C(=O)c2ccco2)CC1 ?
A: 43%

Q: Entry to check: c1ccc(-c2ccc(-c3nc4ccccc4[nH]3)cc2)cc1
A: 105%

Q: For CC(C)(C)c1ccc(C(=O)Nc2nc3ccccc3s2)cc1 then?
A: 105%

====

Tested on: HepG2-A16-CD81EGFP cells
Assay: cells
Details: Homo sapiens, HepG2, read-out: HepG2 Tox% @ 50 uM rep2
measuredMetric: cytotoxicity at 50 µM (%)
Answer with a number only, understood to be in %.

Some entries whose results are on file:
compound	outputUnit	measuredResult
O=C(NC1CCN(Cc2ccccc2)CC1)c1cc(-c2cccnc2)nc2ccc(Cl)cc12 [MMV020490]	%	-0.245
C=C(C)CCC(C)N1CCC(N2CCC(C(=O)NCCc3ccccc3)CC2)CC1 (stereo not drawn) [MMV666110]	%	97
Cc1ccc(NC(=O)Nc2cccc(Cl)c2)cc1F [MMV000911]	%	89
Cc1ccc(-c2cc3c(SCC(=O)Nc4cc(C(F)(F)F)ccc4Cl)nccn3n2)cc1 [MMV396680]	%	2.13
Cc1c(C)n(Cc2ccc(F)cc2)c2ccc(C(=O)NCc3ccco3)cc12 [MMV008149]	%	19

# ---- query compound ----
Q: # get_value(readout='cytotoxicity at 50 µM', item= Cc1ccc(-c2cc3nc4c(c(O)n3n2)CCCC4)cc1 [MMV006937] )
A: -9

====

Item-by-item account of inhibition at 50 µM
Tested on: HepG2-A16-CD81EGFP cells
Assay: cells
Conditions: Homo sapiens, HepG2, read-out: Tox max inhibition (%) @ 50 uM
Output spec: scalar in %, unitless text.

chemicalStructure	studyTarget	measuredResult
FC(F)(F)c1cccc(Nc2nc3ccccc3nc2Nc2cccc(C(F)(F)F)c2)c1	HepG2-A16-CD81EGFP cells	102
COc1cc(OC)c(N(C)C(=O)c2cc3c(s2)-c2ccccc2S(=O)(=O)C3)cc1Cl	HepG2-A16-CD81EGFP cells	39
CC1=C(CC(=O)c2cccc([N+](=O)[O-])c2)C(=O)c2ccccc2C1=O	HepG2-A16-CD81EGFP cells	99
COc1ccccc1N=C1C(=O)c2ccccc2C(O)=C1N1CCCCC1	HepG2-A16-CD81EGFP cells	96
Cc1ccc2cc3c(N)c4c(C)ccc(C)c4nc3nc2c1	HepG2-A16-CD81EGFP cells	12
Oc1c(CN2CCN(c3ccccc3F)CC2)cc(Br)c2cccnc12	HepG2-A16-CD81EGFP cells	78
Cc1ccc(-c2cc3c(SCC(=O)Nc4cc(C(F)(F)F)ccc4Cl)nccn3n2)cc1	HepG2-A16-CD81EGFP cells	11
COc1cc(CNCCc2ccc(Cl)cc2)cc(OC)c1O	HepG2-A16-CD81EGFP cells	33
Brc1ccc(Nc2nc3ccccc3nc2Nc2ccc(Br)cc2)cc1	HepG2-A16-CD81EGFP cells	99
CCOc1ccccc1CN1CCc2nc3cc(C(C)(C)C)nn3c(O)c2C1	HepG2-A16-CD81EGFP cells	8

Let us move to another entry and its inhibition at 50 µM.
Q: Data request, read-out inhibition at 50 µM, for CCOC(=O)c1cnc2c(C)cccc2c1Nc1ccc(C(C)=O)cc1
A: 0

====

Tested on: Plasmodium berghei (Pb-Luc) exoerythrocytic-stage parasites
Experiment: microbe, parasite or virus in culture
Settings: read-out: Inhibition% @ 50 uM rep2
measuredMetric: inhibition at 50 µM (%)
Provide the reading as a plain figure in %.

Consider the reported inhibition at 50 µM for these compounds:
compound	outputUnit	inhibition at 50 µM
COC(=O)c1ccc(C2C3=C(O)CC(c4ccc(F)cc4)CC3=Nc3ccccc3N2C(=O)c2ccccc2)cc1 (stereo not drawn)	%	96
Oc1ccccc1CN1CCN(C(c2ccccc2)c2ccccc2)CC1	%	102

Q: Could you tell me which inhibition at 50 µM is on file for CCOc1cc2c(cc1OCC)C(c1cc(C)c(O)c(C)c1)NCC2 (stereo not drawn) ?
A: 61

Q: Request: CC(=O)c1sc(NC(=O)Nc2ccc(C)cc2C)nc1C
A: -0.396

Q: How about this compound: O=C(Nc1cccc(C(F)(F)F)c1)c1cc(Cl)ccc1O
A: 103

Q: And for CCOC(=O)c1cnc2c(C)cccc2c1Nc1ccc(C(C)=O)cc1 ?
A: 91

Q: Next compound up: O=C(NCc1ccco1)C1CCN(S(=O)(=O)c2ccc(Cl)cc2)CC1
A: 102

Q: Check CCOC(=O)c1ccc2nc(-c3ccccc3)cc(O)c2c1 too.
A: 104

Q: Entry COc1cccc(Nc2nc(NCCO)c3ccccc3n2)c1 please
A: 106

Q: Entry to check: Cc1[nH]c(-c2ccc(F)cc2)cc1C(=O)NC1CCN(Cc2ccccc2)CC1
A: 102

Q: Same lookup for Cn1c(=O)n(C)c2cc(CNCCNc3ccnc4cc(Cl)ccc34)ccc21 , please.
A: 92

Q: What would you report for COc1ccc(C(=O)Nc2nonc2-c2ccc(OC)c(OC)c2)cc1Cl ?
A: 80

Q: // query: COc1ccccc1N=C1C(=O)c2ccccc2C(O)=C1N1CCCCC1
A: 105

Q: Continue with OCCNc1nc(Nc2ccc(Cl)c(Cl)c2)nc2ccccc12
A: 101

Q: What would you report for Cc1cccc(-n2ncc3c(=O)[nH]c(-n4nc(C)cc4NC(=O)c4cc5ccccc5o4)nc32)c1 ?
A: 100
